Assignment: determine reported percent of formoterol maximum response at 1 µM for the given compounds.
Assay system: Adrenergic β2 (Homo sapiens)
Construct: Adherent H292 cells are removed from tissue culture flasks by treatment with Accutase™ cell detachment solution; endogenous in cells; host or cells: H292 cells
Run description: Adrenergic β2 mediated cAMP production in H292 cells, single concentration 1 μM
Format: cell-based
Run parameters: NCI-H292, 1 μM compound, cAMP as percentage of the maximum response generated by 1E-07M formoterol, read-out: β2 % effect @1 uM
Kindly report the value followed by its unit.

q: So what's the measured percent of formoterol maximum response at 1 µM for this one? O=C1COc2c(CCNCCN(C(=O)CCOCCc3cccc(CN4CCC5(CC4)CN(C(=O)c4ccc6c(c4)OCO6)CCO5)c3)C3CCCCC3)ccc(O)c2N1
a: 97%

q: Which percent of formoterol maximum response at 1 µM value is on record for Cc1ccccc1C(=O)N1CCOC2(CCN(Cc3cccc(CCOCCC(=O)N(CCNCCc4ccc(O)c5c4OCC(=O)N5)C4CCCCC4)c3)CC2)C1 ?
a: 94%

q: Entry CCOc1ccccc1C(=O)N1CCOC2(CCN(Cc3cccc(CCOCCC(=O)N(CCNCCc4ccc(O)c5c4OCC(=O)N5)C4CCCCC4)c3)CC2)C1 : reported percent of formoterol maximum response at 1 µM = ?
a: 107%

q: Which percent of formoterol maximum response at 1 µM is listed for N#Cc1ccc(C(=O)N2CCOC3(CCN(Cc4cccc(CCOCCC(=O)N(CCNCCc5ccc(O)c6c5OCC(=O)N6)C5CCCCC5)c4)CC3)C2)cc1 ?
a: 86%

q: Need percent of formoterol maximum response at 1 µM, item O=C1COc2c(CCNCCN(C(=O)CCOCCc3cccc(CN4CCC5(CC4)CN(C(=O)c4cnc(-c6ccccc6)[nH]4)CCO5)c3)C3CCCCC3)ccc(O)c2N1
a: 117%

q: Which percent of formoterol maximum response at 1 µM reading was recorded for the compound O=C1COc2c(CCNCCN(C(=O)CCOCCc3cccc(CN4CCC5(CC4)CN(C(=O)c4cccc6cccnc46)CCO5)c3)C3CCCCC3)ccc(O)c2N1 ?
a: 95%

---

Assay system: human muscarinic acetylcholine M3 receptor (Homo sapiens, UniProt P20309)
Sequence (P20309 whole entry): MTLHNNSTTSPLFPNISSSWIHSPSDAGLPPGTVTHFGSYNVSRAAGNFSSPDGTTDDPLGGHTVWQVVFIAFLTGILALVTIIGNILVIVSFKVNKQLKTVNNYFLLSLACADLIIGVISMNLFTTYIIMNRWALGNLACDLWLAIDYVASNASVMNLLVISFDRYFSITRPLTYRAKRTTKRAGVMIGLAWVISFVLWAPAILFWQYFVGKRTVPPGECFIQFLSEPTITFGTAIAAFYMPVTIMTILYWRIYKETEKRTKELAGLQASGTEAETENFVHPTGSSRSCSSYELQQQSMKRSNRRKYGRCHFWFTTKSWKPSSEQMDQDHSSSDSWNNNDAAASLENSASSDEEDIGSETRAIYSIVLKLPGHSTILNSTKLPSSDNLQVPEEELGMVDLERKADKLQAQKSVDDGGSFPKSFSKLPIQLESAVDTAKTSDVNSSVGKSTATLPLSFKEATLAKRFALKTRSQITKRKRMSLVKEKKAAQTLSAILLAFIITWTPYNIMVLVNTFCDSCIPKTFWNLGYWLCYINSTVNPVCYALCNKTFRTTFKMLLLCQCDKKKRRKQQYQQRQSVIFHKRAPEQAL
Returns: string. Value is YES if measured IC50 is below 0.6 nM, and NO if it is greater than or equal to it.

q: Given the entry CCCCN(CCNCCc1ccc(O)c2c1OCC(=O)N2)C(=O)CCOCCc1cccc(CN2CCC3(CC2)CN(C(=O)c2csc(CC)n2)CCO3)c1Cl [Example 32, ditrifluoroacetate] , would its reported IC50 be below 0.6 nM?
a: YES

q: Criterion: IC50 strictly below 0.6 nM. Is it met by CC(C)c1nc(C(=O)N2CCOC3(CCN(Cc4cccc(COCCOCCC(=O)N(CCNCCc5ccc(O)c6c5OCC(=O)N6)C5CCCCC5)c4)CC3)C2)cs1 [Example 67, ditrifluoroacetate] ?
a: YES

q: Lab log: compare recorded IC50 with 0.6 nM; is it strictly lower for CC(C)c1nc(C(=O)N2CCOC3(CCN(Cc4cccc(OCCOCCC(=O)N(CCNCCc5ccc(O)c6c5OCC(=O)N6)C5CCCCC5)c4)CC3)C2)cs1 [Example 59, ditrifluoroacetate] ?
a: YES

q: Could you please tell me whether IC50 recorded for CCN(CCNCCc1ccc(O)c2[nH]c(=O)sc12)C(=O)CCOCCc1cccc(CN2CCC3(CC2)CN(C(=O)c2csc(C(C)C)n2)CCO3)c1F [Example 10, ditrifluoroacetate] is less than 0.6 nM?
a: NO

q: # TODO verify IC50 < 0.6 nM strictly for this molecule: CC(C)c1ccc(C(=O)N2CCOC3(CCN(Cc4cccc(CCOCCC(=O)N(CCNCCc5ccc(O)c6c5OCC(=O)N6)C5CCCCC5)c4)CC3)C2)s1 [Example 90]
a: YES

q: Input CC(C)c1nc(C(=O)N2CCOC3(CCN(Cc4cccc(CCOCCC(=O)N(CCNCCc5ccc(O)c6c5OCC(=O)N6)[C@H](C)C(C)(C)C)c4F)CC3)C2)cs1 [Example 19, ditrifluoroacetate] ; condition: IC50 strictly below 0.6 nM. Does it hold?
a: NO

q: Does this molecule meet the criterion IC50 < 0.6 nM? CC(C)c1nc(C(=O)N2CCOC3(CCN(Cc4cccc(CCOCCC(=O)N(CCNCCc5ccc(O)c6[nH]c(=O)sc56)C5CCOCC5)c4F)CC3)C2)cs1 [Example 11, ditrifluoroacetate]
a: YES

q: Could you please tell me whether IC50 recorded for CCN(CCNCCc1ccc(O)c2[nH]c(=O)sc12)C(=O)CCOCCc1cccc(OCCCN2CCC3(CC2)CN(C(=O)c2csc(C(C)C)n2)CCO3)c1 [Example 61, ditrifluoroacetate] is less than 0.6 nM?
a: NO

q: Strictly below 0.6 nM in IC50? CC(C)c1nc(C(=O)N2CCOC3(CCN(Cc4cccc(CCOCCC(=O)N(CCNCCc5ccc(O)c6c5OCC(=O)N6)C5CCCCC5)c4Cl)CC3)C2)cs1 [Example 27]
a: NO

q: Consider the molecule CC(C)c1nc(C(=O)N2CCOC3(CCN(Cc4cc(CCOCCC(=O)N(CCNCCc5ccc(O)c6c5OCC(=O)N6)C5CCCCC5)ccc4Cl)CC3)C2)cs1 [Example 49, ditrifluoroacetate] . Is its IC50 strictly less than 0.6 nM?
a: NO

---

Assay system: Adrenergic β2 (Homo sapiens, UniProt P07550)
Construct: Adherent H292 cells are removed from tissue culture flasks by treatment with Accutase™ cell detachment solution; endogenous in cells; host or cells: H292 cells
Sequence (P07550 whole entry): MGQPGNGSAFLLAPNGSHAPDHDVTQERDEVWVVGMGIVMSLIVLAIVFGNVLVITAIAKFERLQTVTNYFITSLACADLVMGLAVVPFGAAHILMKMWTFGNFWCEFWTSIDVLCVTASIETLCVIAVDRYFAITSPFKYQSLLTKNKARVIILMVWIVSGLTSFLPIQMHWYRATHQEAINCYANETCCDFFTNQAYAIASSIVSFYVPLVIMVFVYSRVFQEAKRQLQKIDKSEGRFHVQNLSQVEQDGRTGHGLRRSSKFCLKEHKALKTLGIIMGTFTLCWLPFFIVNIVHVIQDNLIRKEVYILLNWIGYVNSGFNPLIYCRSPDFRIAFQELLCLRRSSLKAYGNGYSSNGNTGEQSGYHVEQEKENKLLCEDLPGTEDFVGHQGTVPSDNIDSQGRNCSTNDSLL
Run description: Adrenergic β2 mediated cAMP production in H292 cells, single concentration 1 μM
Format: cell-based
Run parameters: NCI-H292, 1 μM compound, cAMP as percentage of the maximum response generated by 1E-07M formoterol, read-out: β2 % effect @1 uM
Endpoint: percent of formoterol maximum response at 1 µM (%)
Give your result in % as a bare value.

q: Requested field: percent of formoterol maximum response at 1 µM. Item: O=C1COc2c(CCNCCN(C(=O)CCOCCc3cccc(CN4CCC5(CC4)CN(C(=O)c4ccc(-n6cccn6)cc4)CCO5)c3)C3CCCCC3)ccc(O)c2N1
a: 87

q: I have this molecule here, O=C1COc2c(CCNCCN(C(=O)CCOCCc3cccc(CN4CCC5(CC4)CN(C(=O)C(O)c4ccccc4Cl)CCO5)c3)C3CCCCC3)ccc(O)c2N1 (stereo not drawn) , and I need its recorded percent of formoterol maximum response at 1 µM.
a: 125

q: Report percent of formoterol maximum response at 1 µM for O=C1COc2c(CCNCCN(C(=O)CCOCCc3cccc(CN4CCC5(CC4)CN(C(=O)Cc4noc6ccccc46)CCO5)c3)C3CCCCC3)ccc(O)c2N1 please.
a: 101

q: Report percent of formoterol maximum response at 1 µM for COC1CCCC(C(=O)N2CCOC3(CCN(Cc4cccc(CCOCCC(=O)N(CCNCCc5ccc(O)c6c5OCC(=O)N6)C5CCCCC5)c4)CC3)C2)C1 (stereo not drawn) please.
a: 106

q: Consider the molecule O=C1COc2c(CCNCCN(C(=O)CCOCCc3cccc(CN4CCC5(CC4)CN(C(=O)CC4C[C@@H]6CC[C@H]4C6)CCO5)c3)C3CCCCC3)ccc(O)c2N1 (stereo partly drawn) and give its measured percent of formoterol maximum response at 1 µM.
a: 97

q: Which value of percent of formoterol maximum response at 1 µM has been reported for O=C1COc2c(CCNCCN(C(=O)CCOCCc3cccc(CN4CCC5(CC4)CN(C(=O)c4ccc(Cl)s4)CCO5)c3)C3CCCCC3)ccc(O)c2N1 in the records?
a: 102

---

Assay system: Adrenergic β2 (Homo sapiens, UniProt P07550)
Construct: Adherent H292 cells are removed from tissue culture flasks by treatment with Accutase™ cell detachment solution; endogenous in cells; host or cells: H292 cells
Run description: Adrenergic β2 mediated cAMP production in H292 cells (AlphaScreen), concentration response
Format: cell-based
Run parameters: 60 min, 300 μM rolipram, read-out: β2 pEC50 (converted)
Endpoint: EC50
The reply should read as a number followed by its unit.

q: // query EC50 value for entry Cc1ccn2cc(C(=O)N3CCOC4(CCN(Cc5cccc(CCOCCC(=O)N(CCNCCc6ccc(O)c7c6OCC(=O)N7)C6CCCCC6)c5)CC4)C3)nc2c1
a: 79.4 nM

q: EC50 lookup needed for CCc1nc(C(=O)N2CCOC3(CCN(Cc4cccc(CCOCCC(=O)N(CCNCCc5ccc(O)c6c5OCC(=O)N6)C5CCCC5)c4Cl)CC3)C2)cs1 [Example 33, ditrifluoroacetate] , thanks.
a: 15.8 nM

q: What value of measured EC50 is listed for O=C1COc2c(CCNCCN(C(=O)CCOCCc3cccc(CN4CCC5(CC4)CN(C(=O)c4ccc(Cl)s4)CCO5)c3)C3CCCCC3)ccc(O)c2N1 ?
a: 50.1 nM

---

Assay system: Adrenergic β2 (Homo sapiens, UniProt P07550)
Construct: Adherent H292 cells are removed from tissue culture flasks by treatment with Accutase™ cell detachment solution; endogenous in cells; host or cells: H292 cells
Run description: Adrenergic β2 mediated cAMP production in H292 cells (AlphaScreen), concentration response
Type: cell-based
Run parameters: fraction relative to the maximum activity determined for formoterol
Structures can show the parent of a compound that is named as a salt.
Endpoint: β2 Intrinsic Activity
Lab note: write the figure by itself, no unit.

q: Please give the measured β2 Intrinsic Activity for this compound: CCc1nc(C(=O)N2CCOC3(CCN(CCc4ccc(CCOCCC(=O)N(CCCCCO)CCNCCc5ccc(O)c6[nH]c(=O)sc56)cc4)CC3)C2)cs1 [Example 75, diformate]
a: 0.9

q: Given the compound O=C1COc2c(CCNCCN(C(=O)CCOCCc3cccc(CN4CCC5(CC4)CN(C(=O)c4cccc(Cl)c4)CCO5)c3)C3CCCCC3)ccc(O)c2N1 [Example 164] , what is its reported β2 Intrinsic Activity?
a: 0.8

q: Value lookup for β2 Intrinsic Activity; key = CC(C)Cc1nc(C(=O)N2CCOC3(CCN(Cc4cccc(CCOCCC(=O)N(CCNCCc5ccc(O)c6c5OCC(=O)N6)C5CCCCC5)c4)CC3)C2)cs1 [Example 94]
a: 1.0

q: What measured β2 Intrinsic Activity goes with CCCCN(CCCNCCc1ccc(O)c2c1OCC(=O)N2)C(=O)CCOCCc1cccc(CN2CCC3(CC2)CN(C(=O)c2csc(CC)n2)CCO3)c1Cl [Example 80] ?
a: 0.5

q: Which measured β2 Intrinsic Activity value corresponds to CCCCN(CCNCCc1ccc(O)c2c1OCC(=O)N2)C(=O)CCOCCc1cc(C)cc(CN2CCC3(CC2)CN(C(=O)c2csc(C(C)C)n2)CCO3)c1 [Example 65, ditrifluoroacetate] ?
a: 1.0

q: Value lookup for β2 Intrinsic Activity; key = CCN(CCNCCc1ccc(O)c2c1OCC(=O)N2)C(=O)CCOCCc1cccc(CN2CCC3(CC2)CN(C(=O)c2csc(C4CCCC4)n2)CCO3)c1F [Example 25, ditrifluoroacetate]
a: 0.8

q: Query (compound): CCN(CCNCCc1ccc(O)c2[nH]c(=O)sc12)C(=O)CCOCCCc1cccc(CN2CCC3(CC2)CN(C(=O)c2csc(C(C)C)n2)CCO3)c1F [Example 66, ditrifluoroacetate] ; field requested: β2 Intrinsic Activity
a: 0.5

q: Look at this compound and give its reported β2 Intrinsic Activity. O=C1COc2c(CCNCCN(C(=O)CCOCCc3cccc(CN4CCC5(CC4)CN(C(=O)c4cc6ccccn6n4)CCO5)c3)C3CCCCC3)ccc(O)c2N1 [Example 146]
a: 0.9

q: Endpoint output: β2 Intrinsic Activity of CCN(CCNCCc1ccc(O)c2[nH]c(=O)sc12)C(=O)CCOCCc1cccc(CCN2CCC3(CC2)CN(C(=O)c2csc(C(C)C)n2)CCO3)c1 [Example 35, ditrifluoroacetate] . Value?
a: 1.0

q: Entry CCc1nc(C(=O)N2CCOC3(CCN(Cc4cccc(CCOCCC(=O)N(CCNCCc5ccc(O)c6c5OCC(=O)N6)C5CCCCC5)c4)CC3)C2)cs1 [Example 95] has what β2 Intrinsic Activity?
a: 1.0

q: Suppose we examine the compound Cc1ccoc1C(=O)N1CCOC2(CCN(Cc3cccc(CCOCCC(=O)N(CCNCCc4ccc(O)c5c4OCC(=O)N5)C4CCCCC4)c3)CC2)C1 [Example 159] ; what β2 Intrinsic Activity value has been reported?
a: 0.9

q: Which β2 Intrinsic Activity is reported for this compound? CC(C)c1cccc(C(=O)N2CCOC3(CCN(Cc4cccc(CCOCCC(=O)N(CCNCCc5ccc(O)c6c5OCC(=O)N6)C5CCCCC5)c4)CC3)C2)n1 [Example 97]
a: 1.0

q: Entry CC(C)c1nc(C(=O)N2CCOC3(CN(CCc4cccc(CCOCCC(=O)N(CCNCCc5ccc(O)c6c5OCC(=O)N6)C5CCCCC5)c4)C3)C2)cs1 [Example 176, trifluoroacetate salt] : reported β2 Intrinsic Activity = ?
a: 1.2

q: Reported β2 Intrinsic Activity, compound Cc1nc(C(=O)N2CCOC3(CCN(CCc4ccc(CCOCCC(=O)N(CCNCCc5ccc(O)c6c5OCC(=O)N6)C5CCCCCC5)cc4)CC3)C2)cs1 [Example 5, ditrifluoroacetate] : ____
a: 0.9

q: Item under review: CCCCc1nc(C(=O)N2CCOC3(CCN(Cc4cccc(CCOCCC(=O)N(CCNCCc5ccc(O)c6c5OCC(=O)N6)C5CCCCC5)c4)CC3)C2)cs1 [Example 175] . Reported β2 Intrinsic Activity?
a: 1.0

q: Consider the compound shown here: CC(C)c1nc(C(=O)N2CCOC3(CCN(Cc4cccc(CCOCCC(=O)N(CCNCCc5ccc(O)c6c5OCC(=O)N6)C(C)C)c4F)CC3)C2)cs1 [Example 16, ditrifluoroacetate] What is its recorded β2 Intrinsic Activity?
a: 0.8

q: Please look up its β2 Intrinsic Activity: O=C1COc2c(CCNCCN(C(=O)CCOCCc3cccc(CN4CCC5(CC4)CN(C(=O)c4ccc6cccnc6n4)CCO5)c3)C3CCCCC3)ccc(O)c2N1 [Example 161]
a: 1.0

q: Look up β2 Intrinsic Activity for this compound: CCN(CCNCCc1ccc(O)c2[nH]c(=O)sc12)C(=O)CCOCCc1cc(CN2CCC3(CC2)CN(C(=O)c2csc(C(C)C)n2)CCO3)ccc1F [Example 43, ditrifluoroacetate]
a: 0.9

q: What β2 Intrinsic Activity value was documented for this compound, CC(C)c1nc(C(=O)N2CCOC3(CCN(Cc4cccc(CCOCCC(=O)N(CCNCCc5ccc(O)c6c5OCC(=O)N6)C5CCCCCC5)c4F)CC3)C2)cs1 [Example 7, ditrifluoroacetate] ?
a: 1.0

q: Need β2 Intrinsic Activity of CC(C)c1csc(C(=O)N2CCOC3(CCN(Cc4cccc(CCOCCC(=O)N(CCNCCc5ccc(O)c6c5OCC(=O)N6)C5CCCCC5)c4)CC3)C2)c1 [Example 98] , thanks.
a: 1.1

q: Give its β2 Intrinsic Activity value. Item: CC(C)c1ccc(C(=O)N2CCOC3(CCN(Cc4cccc(CCOCCC(=O)N(CCNCCc5ccc(O)c6c5OCC(=O)N6)C5CCCCC5)c4)CC3)C2)s1 [Example 90]
a: 1.0
